target: human S1P1 receptors (Homo sapiens); experiment: Human S1P Receptor Calcium FLIPR Antagonist Assay, HeLa Gα16 S1P1; conditions: HeLa-S1P1/Gα16 cells; antagonism of Ca2+ signal of probing agonist GNF-AC-1 at EC80
readout_label: IC50 (nM)

Observe how each entry below is paired with its result.
1. Cc1cc(S(=O)(=O)Nc2cccc(-c3cc(C)c(C(=O)NC4(C(=O)O)CCN(C)CC4)c(C)c3)c2)c(C)cc1Cl :: 2
2. Cc1cc(S(=O)(=O)Nc2cccc(-c3cc(C)c(C(=O)NC4(C(=O)O)CCOCC4)c(C)c3)c2)c(C)cc1Cl :: 2
3. Cc1cc(S(=O)(=O)Nc2cccc(-c3ccc(C(=O)N[C@H](CO)C(=O)O)c(C)c3)c2)c(C)cc1Cl :: 0.8
4. Cc1cc(S(=O)(=O)Nc2cccc(-c3cc(C)c(C(=O)NC4(C(=O)O)CCC4)c(C)c3)c2)c(C)cc1Cl :: 3.5
5. Cc1cc(S(=O)(=O)Nc2cccc(-c3cc(C)c(C(=O)N[C@@H](C)C(N)=O)c(C)c3)c2)c(C)cc1Cl :: 8

I. Cc1cc(S(=O)(=O)Nc2cccc(-c3ccc(C(=O)N[C@H](C(=O)O)[C@H](C)O)c(C)c3)c2)c(C)cc1Cl
II. COC[C@H](NC(=O)c1ccc(-c2cccc(NS(=O)(=O)c3cc(C)c(Cl)cc3C)c2)cc1C)C(=O)O
// pick min by IC50: I , II Respond with the label that goes with your answer.
I

====

biological target: human S1P1 receptors (Homo sapiens); assay: Human S1P Receptor Calcium FLIPR Antagonist Assay, HeLa Gα16 S1P1; conditions: HeLa-S1P1/Gα16 cells; antagonism of Ca2+ signal of probing agonist GNF-AC-1 at EC80
pIC50: −log10 of the molar value.
readout_label: pIC50

I. Cc1cc(S(=O)(=O)Nc2cccc(-c3ccc(C(=O)NC4(C(=O)O)CC4)c(C)c3)c2)c(C)cc1Cl
II. Cc1cc(S(=O)(=O)Nc2cccc(-c3cc(C)c(C(=O)N[C@H](CO)C(=O)O)c(C)c3)c2)c(C)cc1Cl
Consider entries I and II . Which has the numerically lower pIC50? API: response body contains the label of the selected item.
II
(II: 8.46, I: 9.10)

1. Cc1cc(S(=O)(=O)Nc2cccc(-c3ccc(C(=O)N[C@H](CO)C(=O)O)cc3)c2)c(C)cc1Cl
2. Cc1cc(S(=O)(=O)Nc2cccc(-c3cc(C)c(C(=O)NC(C)(C)C(=O)O)c(C)c3)c2)c(C)cc1Cl
3. Cc1cc(S(=O)(=O)Nc2cccc(-c3ccc(C(=O)N[C@@H](CO)C(=O)O)cc3)c2)c(C)cc1Cl
4. CC[C@H](NC(=O)c1ccc(-c2cccc(NS(=O)(=O)c3cc(C)c(Cl)cc3C)c2)cc1C)C(=O)O
Output the entries ranked by pIC50 from maximum down to minimum. Output spec: a listing of the labels in the requested order.
4, 1, 3, 2
(4: 9.30, 1: 8.82, 3: 8.55, 2: 8.30)

1. COc1cc(-c2cccc(NS(=O)(=O)c3cc(C)c(Cl)cc3C)c2)ccc1C(=O)N[C@@H](CO)C(=O)O
2. Cc1cc(S(=O)(=O)Nc2cccc(-c3cnc(C(=O)N[C@@H](CO)C(=O)O)cn3)c2)c(C)cc1Cl
3. CC[C@H](NC(=O)c1c(C)cc(-c2cccc(NS(=O)(=O)c3cc(C)c(Cl)cc3C)c2)cc1C)C(=O)O
4. Cc1cc(S(=O)(=O)Nc2cccc(-c3ccc(C(=O)NC4(C(=O)O)CNC4)c(C)c3)c2)c(C)cc1Cl
5. Cc1cc(S(=O)(=O)Nc2cccc(-c3ccc(C(=O)N[C@@H](C)C(=O)O)cc3)c2)c(C)cc1Cl
Rank entries according to their pIC50, from the largest number down. Hello, could you send the labels back in the order asked? Thank you.
1, 3, 4, 2, 5

====

target: human S1P1 receptors (Homo sapiens); assay: Human S1P Receptor Calcium FLIPR Antagonist Assay, HeLa Gα16 S1P1; settings: HeLa-S1P1/Gα16 cells; antagonism of Ca2+ signal of probing agonist GNF-AC-1 at EC80
pIC50: −log10 of the molar value.
readout_label: pIC50

Completed entries (count: 2):
1. Cc1cc(S(=O)(=O)Nc2cccc(-c3cc(C)c(C(=O)N[C@@H](CO)C(=O)O)c(C)c3)c2)c(C)cc1Cl :: 9.22
2. Cc1cc(S(=O)(=O)Nc2cccc(-c3cc(C)c(C(=O)NC4(C(=O)O)CN(C(=O)OC(C)(C)C)C4)c(C)c3)c2)c(C)cc1Cl :: 8.40

P. Cc1cc(S(=O)(=O)Nc2cccc(-c3ccc(C(=O)N[C@@H](COC(C)(C)C)C(=O)O)c(C)c3)c2)c(C)cc1Cl
Q. CC(=O)N1CC(NC(=O)c2ccc(-c3cccc(NS(=O)(=O)c4cc(C)c(Cl)cc4C)c3)cc2C)(C(=O)O)C1
R. Cc1cc(S(=O)(=O)Nc2cccc(-c3cc(C)c(C(=O)N(C)[C@@H](CO)C(=O)O)c(C)c3)c2)c(C)cc1Cl
S. Cc1cc(S(=O)(=O)Nc2cccc(-c3cc(C)c(C(=O)NC4(C(=O)O)CNC4)c(C)c3)c2)c(C)cc1Cl
Order the 4 molecules from highest to lowest pIC50. List the labels in the requested order.
R, S, Q, P
(R: 8.96, S: 8.70, Q: 8.30, P: 8.05)

I. Cc1cc(S(=O)(=O)Nc2cccc(-c3ccc(C(=O)N[C@H](CC(=O)O)c4ccccc4)cc3)c2)c(C)cc1Cl
II. Cc1cc(S(=O)(=O)Nc2cccc(-c3ccc(C(=O)NCc4nnn[nH]4)c(C)c3)c2)c(C)cc1Cl
Of I and II , whose reported pIC50 is the larger number? Answer = label.
II
(II: 8.26, I: 8.03)

1. Cc1cc(S(=O)(=O)Nc2cccc(-c3cc(C)c(C(=O)NCC(=O)O)c(C)c3)c2)c(C)cc1Cl
2. Cc1cc(S(=O)(=O)Nc2cccc(-c3cc(C)c(C(=O)N[C@@H](CO)C(N)=O)c(C)c3)c2)c(C)cc1Cl
Which has the higher pIC50, 1 or 2 ? Output the label that corresponds to your choice.
1
(1: 9.00, 2: 8.52)

====

target: human S1P1 receptors (Homo sapiens, UniProt P21453); assay: Human S1P Receptor Calcium FLIPR Antagonist Assay, HeLa Gα16 S1P1; settings: HeLa-S1P1/Gα16 cells; antagonism of Ca2+ signal of probing agonist GNF-AC-1 at EC80
Sequence (P21453 whole entry): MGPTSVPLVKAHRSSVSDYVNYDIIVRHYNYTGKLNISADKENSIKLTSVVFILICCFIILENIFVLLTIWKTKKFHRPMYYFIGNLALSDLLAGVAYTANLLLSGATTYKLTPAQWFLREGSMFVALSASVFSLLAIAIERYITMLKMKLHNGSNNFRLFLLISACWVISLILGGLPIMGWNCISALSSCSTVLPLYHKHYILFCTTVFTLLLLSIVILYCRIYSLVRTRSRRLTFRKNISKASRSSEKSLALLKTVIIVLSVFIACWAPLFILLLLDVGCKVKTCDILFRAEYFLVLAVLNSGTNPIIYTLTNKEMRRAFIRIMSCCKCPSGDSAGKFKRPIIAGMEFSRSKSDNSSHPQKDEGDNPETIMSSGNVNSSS
readout_label: IC50 (nM)

Example entries begin here.
1) Cc1cc(S(=O)(=O)Nc2cccc(-c3ccc(CN[C@H](CO)C(=O)O)cc3)c2)c(C)cc1Cl :: 4.7
2) Cc1cc(S(=O)(=O)Nc2cccc(-c3ccc(C(=O)NC4(C(=O)O)CN(C)C4)c(C)c3)c2)c(C)cc1Cl :: 5
3) Cc1cc(S(=O)(=O)Nc2cccc(-c3ccc(C(=O)NCC(=O)O)cc3)c2)c(C)cc1Cl :: 3.2
4) Cc1cc(S(=O)(=O)Nc2cccc(-c3ccc(C(=O)NCC(=O)O)c(C)c3)c2)c(C)cc1Cl :: 1.3
5) Cc1cc(S(=O)(=O)Nc2cccc(-c3ccc(C(=O)N[C@@H](C)C(=O)O)c(C)c3)c2)c(C)cc1Cl :: 1.3
6) Cc1cc(S(=O)(=O)Nc2cccc(-c3cc(C)c(C(=O)N[C@@H](CN)C(=O)O)c(C)c3)c2)c(C)cc1Cl :: 5.5
7) Cc1cc(S(=O)(=O)Nc2cccc(-c3cc(C)c(C(=O)NC4(C(=O)O)CC4)c(C)c3)c2)c(C)cc1Cl :: 1.7
8) CCc1cc(-c2cccc(NS(=O)(=O)c3cc(C)c(Cl)cc3C)c2)ccc1C(=O)N[C@@H](C)C(=O)O :: 1.7

A. Cc1cc(S(=O)(=O)Nc2cccc(-c3cc(C)c(C(=O)N[C@@H](C)C(=O)O)c(C)c3)c2)c(C)cc1Cl
B. COC[C@H](NC(=O)c1c(C)cc(-c2cccc(NS(=O)(=O)c3cc(C)c(Cl)cc3C)c2)cc1C)C(=O)O
Compare reported IC50 values for A and B . Which is lower? Mark your selection by writing its label.
A
(A: 1.1 nM, B: 1.7 nM)

A. COc1cc(-c2cccc(NS(=O)(=O)c3cc(C)c(Cl)cc3C)c2)ccc1C(=O)NCC(=O)O
B. Cc1cc(S(=O)(=O)Nc2cccc(-c3ccc(C(=O)N[C@H](C(=O)O)[C@@H](C)O)c(C)c3)c2)c(C)cc1Cl
C. Cc1cc(S(=O)(=O)Nc2cccc(-c3cc(C)c(C(=O)N[C@H](CN)C(=O)O)c(C)c3)c2)c(C)cc1Cl
Put the items in sequence by IC50, from largest down. Give me the labels in the order the question wants.
C, B, A
(C: 5 nM, B: 1.5 nM, A: 1 nM)

a. Cc1cc(S(=O)(=O)Nc2cccc(-c3cc(C)c(C(=O)N(C)[C@@H](C)C(=O)O)c(C)c3)c2)c(C)cc1Cl
b. Cc1cc(S(=O)(=O)Nc2cccc(-c3ccc(C(=O)N(C)[C@@H](CO)C(=O)O)cc3)c2)c(C)cc1Cl
Lab note: check whether a or b shows the higher recorded IC50. Provide the label of your selected option as the answer.
b
(b: 1.7 nM, a: 1.1 nM)

Values compiled from patent US20100029609A1.
